- subjectOfTest: Neurogenic locus notch homolog protein 3 (Homo sapiens) (UniProt Q9UM47)
- Sequence (Q9UM47 whole entry, looked up): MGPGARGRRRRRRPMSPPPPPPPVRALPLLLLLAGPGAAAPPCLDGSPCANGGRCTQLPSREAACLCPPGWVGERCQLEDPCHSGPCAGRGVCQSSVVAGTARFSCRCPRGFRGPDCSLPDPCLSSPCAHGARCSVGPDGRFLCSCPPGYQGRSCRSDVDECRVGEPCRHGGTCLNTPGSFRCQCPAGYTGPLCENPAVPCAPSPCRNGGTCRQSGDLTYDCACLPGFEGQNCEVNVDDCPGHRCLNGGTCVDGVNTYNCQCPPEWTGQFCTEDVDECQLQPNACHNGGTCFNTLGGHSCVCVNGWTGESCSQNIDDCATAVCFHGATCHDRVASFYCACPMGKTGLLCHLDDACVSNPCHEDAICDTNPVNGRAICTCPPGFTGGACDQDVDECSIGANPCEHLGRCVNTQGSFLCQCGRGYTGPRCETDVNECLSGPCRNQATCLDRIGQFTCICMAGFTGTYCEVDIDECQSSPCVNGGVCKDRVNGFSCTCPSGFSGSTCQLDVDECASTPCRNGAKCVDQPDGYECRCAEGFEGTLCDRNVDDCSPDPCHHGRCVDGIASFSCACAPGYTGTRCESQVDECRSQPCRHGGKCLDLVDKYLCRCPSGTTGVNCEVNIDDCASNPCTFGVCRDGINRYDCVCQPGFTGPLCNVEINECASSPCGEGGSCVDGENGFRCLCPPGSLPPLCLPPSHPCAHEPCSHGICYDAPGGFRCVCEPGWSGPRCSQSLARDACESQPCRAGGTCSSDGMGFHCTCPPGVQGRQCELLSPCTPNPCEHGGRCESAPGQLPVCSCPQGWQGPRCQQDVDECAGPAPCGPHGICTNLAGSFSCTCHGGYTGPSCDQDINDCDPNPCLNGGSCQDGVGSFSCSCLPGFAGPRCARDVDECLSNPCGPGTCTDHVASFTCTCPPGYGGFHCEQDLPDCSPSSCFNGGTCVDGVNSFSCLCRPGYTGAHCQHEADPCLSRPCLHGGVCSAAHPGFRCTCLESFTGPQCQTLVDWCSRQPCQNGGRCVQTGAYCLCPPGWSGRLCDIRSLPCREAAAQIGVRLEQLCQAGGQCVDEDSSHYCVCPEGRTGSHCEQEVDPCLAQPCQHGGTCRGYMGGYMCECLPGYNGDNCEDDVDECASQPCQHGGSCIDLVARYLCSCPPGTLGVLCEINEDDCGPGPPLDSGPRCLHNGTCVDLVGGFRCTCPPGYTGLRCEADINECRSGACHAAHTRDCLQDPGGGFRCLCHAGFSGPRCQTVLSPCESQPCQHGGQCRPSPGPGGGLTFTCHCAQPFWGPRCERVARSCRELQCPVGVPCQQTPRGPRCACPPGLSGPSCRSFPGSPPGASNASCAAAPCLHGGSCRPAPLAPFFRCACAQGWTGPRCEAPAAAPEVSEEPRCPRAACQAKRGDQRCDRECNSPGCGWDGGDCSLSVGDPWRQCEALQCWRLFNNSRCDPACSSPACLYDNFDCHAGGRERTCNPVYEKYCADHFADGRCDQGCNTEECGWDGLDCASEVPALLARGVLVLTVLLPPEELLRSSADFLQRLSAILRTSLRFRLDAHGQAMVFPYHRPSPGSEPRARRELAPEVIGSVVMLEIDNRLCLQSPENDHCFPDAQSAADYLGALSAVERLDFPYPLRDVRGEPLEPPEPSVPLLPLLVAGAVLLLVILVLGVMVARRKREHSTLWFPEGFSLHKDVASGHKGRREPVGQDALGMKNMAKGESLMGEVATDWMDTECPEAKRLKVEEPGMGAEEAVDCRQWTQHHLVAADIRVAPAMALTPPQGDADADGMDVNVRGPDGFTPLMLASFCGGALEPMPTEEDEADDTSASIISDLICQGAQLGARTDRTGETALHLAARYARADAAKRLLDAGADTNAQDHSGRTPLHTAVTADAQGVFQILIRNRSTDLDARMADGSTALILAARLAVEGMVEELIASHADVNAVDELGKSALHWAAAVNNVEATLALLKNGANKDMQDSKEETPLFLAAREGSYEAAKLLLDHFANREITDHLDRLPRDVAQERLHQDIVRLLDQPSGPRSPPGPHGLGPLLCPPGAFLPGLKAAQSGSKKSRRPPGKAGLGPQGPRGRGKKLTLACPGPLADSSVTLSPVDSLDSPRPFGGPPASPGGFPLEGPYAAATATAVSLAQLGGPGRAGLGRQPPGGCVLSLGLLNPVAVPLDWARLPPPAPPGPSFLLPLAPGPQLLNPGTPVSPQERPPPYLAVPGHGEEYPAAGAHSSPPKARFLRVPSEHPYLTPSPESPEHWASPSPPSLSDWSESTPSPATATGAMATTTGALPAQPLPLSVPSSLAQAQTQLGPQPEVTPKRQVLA
- experimentDescription: NOTCH3 binders on small-molecule microarray, primary screen, biochemical, 635/667 nm fluorescence (AID 1096)
- statedConditions: NOTCH3 binding, 635 nm fluorescence, higher = more signal
reportedEndpoint: composite z-score
Answer with the value's number alone.

[[record]]
molecule = "COCCOC(=O)N1C(=O)[C@@]2(c3cc(C#CC4=CCCCC4)ccc31)[C@H](c1ccc(O)cc1)N1[C@H](c3ccccc3)[C@H](c3ccccc3)OC(=O)[C@H]1[C@@H]2C(=O)N1CCN(c2ncccn2)CC1"
experimentalresult = -0.756

[[record]]
molecule = "COc1cc2c(cc1OC)CN(C(=O)[C@@H]1[C@H]3C(=O)O[C@H](c4ccccc4)[C@H](c4ccccc4)N3[C@H](c3ccc(OCCO)cc3)[C@@]13C(=O)Nc1ccccc13)CC2"
experimentalresult = 1.15

[[record]]
molecule = "[N-]=[N+]=Nc1ccccc1[C@H]1OC(c2ccc(OCCCO)cc2)=N[C@@]1(Cc1ccccc1)C(=O)N1CCCCC1"
experimentalresult = 1.08

[[record]]
molecule = "CC(=O)c1ccc(C(O)C2C=CC3C(=O)N(c4ccccc4)C(=O)C3N2Nc2ccc(C#N)cc2)cc1 (configuration not stated)"
experimentalresult = 0.352


Entry under review: C=CCN1C(=O)[C@@]2(CCS(=O)(=O)c3ccccc3)N=C(c3ccc(OCCCO)cc3)O[C@H]2c2ccccc21 . Reported composite z-score?
1.12

Entry under review: O=C1C=C(c2ccccc2)C(=O)c2ccc([C@H]3Oc4ccccc4S(=O)(=O)N4CCC[C@@H]34)cc21 . Reported composite z-score?
-0.272

Entry under review: COC(=O)[C@@]1(Cc2ccccc2)[C@H]2c3cc(C(=O)N(C)C)n(CCN4CNCC4=O)c3C[C@H]2CN1C(=O)c1ccccc1 . Reported composite z-score?
0.0743

###

- subjectOfTest: Concanavalin-A (Canavalia ensiformis) (UniProt P02866)
- Sequence (P02866 whole entry, looked up): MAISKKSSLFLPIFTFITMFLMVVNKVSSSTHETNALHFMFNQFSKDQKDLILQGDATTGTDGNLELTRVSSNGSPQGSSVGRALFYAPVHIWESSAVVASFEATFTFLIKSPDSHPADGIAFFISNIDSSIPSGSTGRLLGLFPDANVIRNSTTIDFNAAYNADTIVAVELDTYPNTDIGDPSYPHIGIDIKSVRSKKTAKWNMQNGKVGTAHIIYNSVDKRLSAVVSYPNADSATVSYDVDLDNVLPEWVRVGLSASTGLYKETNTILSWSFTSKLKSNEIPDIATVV
- experimentDescription: ConA small-molecule binders, primary screen, artefact control for SMM control protein annotation, biochemical, small-molecule microarray, Alexa647 label, 635 nm (AID 1127);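 further: z combines 667 nm emission intensity with signal-to-noise across three replicate slides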
- statedConditions: ConA-A647 binding fluorescence, higher = more signal
# key: entry, value: composite z-score

Previously resolved entries follow.
[[record]]
compound = "C=CCOC(=O)[C@H]1[C@@H]2C(=O)O[C@@H](c3ccccc3)[C@@H](c3ccccc3)N2[C@@H](c2ccc(OCCOC(=O)[C@@H]3C[C@@H]4C(=O)N[C@@H](CCCCN(C)C)C(=O)N4[C@@H]3c3ccc(O)cc3)cc2)[C@]12C(=O)Nc1ccccc12"
reportedendpoint = "composite z-score"
experimentalresult = 1.14

[[record]]
compound = "CC(C)C(=C=CC[C@H](O)c1cccc(OCCO)c1)C[C@H](O)c1cc(Cl)cc(Cl)c1O"
reportedendpoint = "composite z-score"
experimentalresult = 0.943

[[record]]
compound = "C=CC[C@]1(C(=O)O)COC(c2ccc(OCCCO)cc2)=N1"
reportedendpoint = "composite z-score"
experimentalresult = -0.427

[[record]]
compound = "C=C(/C(=C/C[C@H](OC(=O)c1ccncc1)c1ccc(CO)o1)c1cc(C(=O)OC)ccc1OC)C(C)C"
reportedendpoint = "composite z-score"
experimentalresult = 0.557


Entry under review: COc1ccc(NC(=O)O[C@H]2[C@H](OC(=O)Nc3ccccc3)[C@H](OC(=O)Nc3ccccc3)[C@@H](OC)O[C@@H]2CO)cc1 . Reported composite z-score?
0.946

Entry under review: C=CCOC(=O)[C@H]1[C@@H]2C(=O)O[C@@H](c3ccccc3)[C@@H](c3ccccc3)N2[C@@H](c2ccc(OCCOC(=O)[C@H]3C[C@H]4C(=O)N[C@@H](CC(C)C)C(=O)N4[C@H]3c3cccc(OCCO)c3)cc2)[C@]12C(=O)Nc1ccc(I)cc12 . Reported composite z-score?
1.11

Entry under review: [N-]=[N+]=NCc1ccccc1C[C@@]1(C(=O)N2CCOCC2)N=C(c2ccc(OCCCO)cc2)O[C@@H]1c1ccccc1 . Reported composite z-score?
1.08

Entry under review: CCOC(=O)c1ccc(NC(=O)O[C@H]2[C@H](OC(=O)Nc3ccc4c(c3)OCO4)[C@@H](OC(=O)Nc3ccc4c(c3)OCO4)[C@@H](OC)O[C@@H]2CO)cc1 . Reported composite z-score?
1.14

###

- experimentDescription: cell viability in Huh7 cells, primary screen, cytotoxicity control for HCV replication inhibitor project, CellTiter-Glo luminescence, basal, 48 h (AID 1143);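 further: Huh7 hepatoma cells carrying a hepatitis C replication reporter with no stimulus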
- statedConditions: Huh7 HCV replicon, higher = more signal, called active from +8 up or from −8 down
Consider the following partition of reported z-score into named classes: bottom bin (below -3), middle bin (-3 to below -1), top bin (-1 or more)

Consider the following illustrative entries.
[[record]]
molecule = "Cc1ccc(S[C@]2(C(=O)O)CC(=O)N(C3Cc4ccccc4C3)[C@@H]2c2ccc(CO)cc2)cc1"
category = "top bin"

[[record]]
molecule = "CC(=O)NCCCC[C@@H]1NC(=O)[C@@H]2C[C@H](C(=O)NCCCC[N+](C)(C)C)[C@H](c3ccc(O)cc3)N2C1=O"
category = "middle bin"

[[record]]
molecule = "COCCOC(=O)N1C(=O)[C@@]2(c3ccccc31)[C@H](C(=O)N1CCN(c3ncccn3)CC1)[C@H]1C(=O)O[C@H](c3ccccc3)[C@H](c3ccccc3)N1[C@@H]2c1ccc(O)cc1"
category = "middle bin"

[[record]]
molecule = "CCOc1cc(C(O)C2C=CC3C(=O)N(C)C(=O)C3N2Nc2ccccc2)ccc1O (stereo not drawn)"
category = "top bin"

[[record]]
molecule = "O=C1O[C@@H](c2ccccc2)[C@@H](c2ccccc2)N2[C@@H](c3ccc(OCCO)cc3)[C@]3(C(=O)Nc4ccccc43)[C@@H](C(=O)O)[C@H]12"
category = "bottom bin"


Into which category would you place [N-]=[N+]=NCc1ccccc1[C@H]1OC(c2ccc(OCCCO)cc2)=N[C@@]1(CCS(=O)(=O)c1ccccc1)C(=O)N1CCCCC1 ?
middle bin

Into which category would you place COc1ccc([Si](C)(C)[C@@H]2[C@@H](CCn3cc([C@H](O)c4ccccc4)nn3)O[C@]3(C(=O)N(Cc4ccc(N5CCC5=O)cc4)c4ccccc43)[C@H]2C)cc1 ?
middle bin

Into which category would you place C=C(COC)C(=O)CC[C@@H](OC(=O)c1cccnc1)c1ccc(OCCO)cc1 ?
bottom bin

###

- Test system: XIP peptide (Xip251-270)
- experimentDescription: small-molecule binders of XIP peptide, primary screen, biochemical, small-molecule microarray, fluorescence 635/667 nm, 0.5 µg/mL protein (AID 1183)
- statedConditions: small-molecule microarray binding, fluorescence 635 nm; higher = more signal
reportedEndpoint: composite z-score
Answer with the value's number alone.

[[record]]
compound = "COCCOC(=O)N1C(=O)[C@@]2(c3cc(C#Cc4ccc(OC)cc4)ccc31)[C@H](C(=O)Nc1nc3ccccc3s1)[C@H]1C(=O)O[C@H](c3ccccc3)[C@H](c3ccccc3)N1[C@@H]2c1ccc(O)cc1"
reportedendpoint = "composite z-score"
experimentalresult = 0.748

[[record]]
compound = "CCOC(=O)C[C@H]1[C@H](OC(=O)c2ccccc2-c2ccccc2)[C@@H](NC(=O)C2CCCCC2)c2cc(OCCCO)ccc2N1C(=O)Cc1ccc(OC)cc1"
reportedendpoint = "composite z-score"
experimentalresult = 0.333

[[record]]
compound = "COCCCNC(=O)[C@@]1(Cc2ccccc2N=[N+]=[N-])N=C(c2ccc(OCCCO)cc2)O[C@H]1c1ccccc1"
reportedendpoint = "composite z-score"
experimentalresult = 0.818


Entry under review: NC(=O)NCC#Cc1ccc2c(c1)[C@]1(C(=O)N2)[C@H](C(=O)NC[C@H](O)c2ccccc2)[C@H]2C(=O)O[C@H](c3ccccc3)[C@H](c3ccccc3)N2[C@@H]1c1ccc(OCCO)cc1 . Reported composite z-score?
0.528

Entry under review: COCCCNC(=O)[C@@]1(Sc2ccc(C)cc2)CC(=O)N(C2CCCCC2)[C@@H]1c1ccc(CO)cc1 . Reported composite z-score?
0.421

Entry under review: COC(=O)[C@@]1(Cc2ccccc2)[C@H]2c3cc(C(=O)N(C)C)n(CCN4CNCC4=O)c3C[C@H]2CN1C(=O)c1ccccc1 . Reported composite z-score?
1.01

Entry under review: CCCCCCc1nc(C2CC2)cc2c1[Si](C(C)C)(C(C)C)O[C@H]2c1ccccc1 . Reported composite z-score?
0.421

Entry under review: CCCNC(=O)[C@@H]1c2ccccc2C(=O)N(C(C)C)[C@H]1c1ccc(CO)cc1 . Reported composite z-score?
0.658

Entry under review: CN(C)C(=O)[C@@]1(Cc2ccccc2CN=[N+]=[N-])N=C(c2ccc(OCCCO)cc2)O[C@H]1c1ccccc1CN=[N+]=[N-] . Reported composite z-score?
0.707

Entry under review: CCOC(=O)C1CCCCN1 (stereo not drawn) . Reported composite z-score?
-0.0839

Entry under review: CCOC(=O)C[C@H]1[C@H](OC(=O)c2cc3ccccc3oc2=O)[C@@H](NC(=O)Cc2ccc(OC)cc2)c2cc(OCCCO)ccc2N1C(=O)c1ccc2ccccc2n1 . Reported composite z-score?
0.255

Entry under review: C=CCOC(=O)[C@H]1[C@@H]2C(=O)O[C@@H](c3ccccc3)[C@@H](c3ccccc3)N2[C@@H](c2ccc(OCCOC(=O)[C@@H]3C[C@@H]4C(=O)N[C@@H](CCCCN(C)C)C(=O)N4[C@@H]3c3ccc(O)cc3)cc2)[C@]12C(=O)Nc1ccccc12 . Reported composite z-score?
0.878
